Experiment: Spectroscopic properties of CF library (absorbance, emission, quantum yield, extinction coefficient)
Type: physicochemical
Settings: 100 μM in ethanol
quantity: Abs (nm)

CCCCCCCNC(=O)c1ccc(-c2c3cc(Cl)c(=O)cc-3oc3cc(O)c(Cl)cc23)cc1    520
O=C(NCc1c(F)cccc1F)c1ccc(-c2c3cc(Cl)c(=O)cc-3oc3cc(O)c(Cl)cc23)cc1    520
O=C(c1ccc(-c2c3cc(Cl)c(=O)cc-3oc3cc(O)c(Cl)cc23)cc1)N1CCc2ccccc2C1    520

###

Test: Spectroscopic properties of CF library (absorbance, emission, quantum yield, extinction coefficient)
Assay type: physicochemical
Details: 100 μM in ethanol
quantity: Em (nm)

O=C(c1ccc(-c2c3cc(Cl)c(=O)cc-3oc3cc(O)c(Cl)cc23)cc1)N1CCCC1 [CF-B7]    556
COc1ccc(CCNC(=O)c2ccc(-c3c4cc(Cl)c(=O)cc-4oc4cc(O)c(Cl)cc34)cc2)cc1 [CF-C5]    558
CCCNC(=O)c1ccc(-c2c3cc(Cl)c(=O)cc-3oc3cc(O)c(Cl)cc23)cc1 [CF-D9]    558
CCCCN(CCCC)C(=O)c1ccc(-c2c3cc(Cl)c(=O)cc-3oc3cc(O)c(Cl)cc23)cc1 [CF-E3]    554
O=C(c1ccc(-c2c3cc(Cl)c(=O)cc-3oc3cc(O)c(Cl)cc23)cc1)N1CCc2ccccc2C1 [CF-A5]    556
COc1ccccc1CCNC(=O)c1ccc(-c2c3cc(Cl)c(=O)cc-3oc3cc(O)c(Cl)cc23)cc1 [CF-F8]    559
CC(C)OCCCNC(=O)c1ccc(-c2c3cc(Cl)c(=O)cc-3oc3cc(O)c(Cl)cc23)cc1 [CF-F9]    557
CN(Cc1ccccc1)C(=O)c1ccc(-c2c3cc(Cl)c(=O)cc-3oc3cc(O)c(Cl)cc23)cc1 [CF-B6]    558
CCCN(CC1CC1)C(=O)c1ccc(-c2c3cc(Cl)c(=O)cc-3oc3cc(O)c(Cl)cc23)cc1 [CF-C6]    554
CCCCN(CC)C(=O)c1ccc(-c2c3cc(Cl)c(=O)cc-3oc3cc(O)c(Cl)cc23)cc1 [CF-B4]    556
O=C(NCc1c(Cl)cccc1Cl)c1ccc(-c2c3cc(Cl)c(=O)cc-3oc3cc(O)c(Cl)cc23)cc1 [CF-E2]    557
COc1cccc(CNC(=O)c2ccc(-c3c4cc(Cl)c(=O)cc-4oc4cc(O)c(Cl)cc34)cc2)c1 [CF-C4]    559
CCC(C)(C)NC(=O)c1ccc(-c2c3cc(Cl)c(=O)cc-3oc3cc(O)c(Cl)cc23)cc1 [CF-G11]    557
CC1CCCC(NC(=O)c2ccc(-c3c4cc(Cl)c(=O)cc-4oc4cc(O)c(Cl)cc34)cc2)C1C (stereo not shown) [CF-H2]    556
CC1CN(C(=O)c2ccc(-c3c4cc(Cl)c(=O)cc-4oc4cc(O)c(Cl)cc34)cc2)CC(C)O1 (stereo not shown) [CF-D3]    555
O=C(NCC1CCCCC1)c1ccc(-c2c3cc(Cl)c(=O)cc-3oc3cc(O)c(Cl)cc23)cc1 [CF-G9]    557

###

Assay: Spectroscopic properties of CF library (absorbance, emission, quantum yield, extinction coefficient)
Assay type: physicochemical
Settings: 100 μM in ethanol
quantity: Em (nm)

O=C(CCCCc1ccccc1)c1ccc(-c2c3cc(Cl)c(=O)cc-3oc3cc(O)c(Cl)cc23)cc1 [CF-G4]    556
CC1CCCCC1NC(=O)c1ccc(-c2c3cc(Cl)c(=O)cc-3oc3cc(O)c(Cl)cc23)cc1 (stereo not shown) [CF-C7]    558
CC(C)CC(C)NC(=O)c1ccc(-c2c3cc(Cl)c(=O)cc-3oc3cc(O)c(Cl)cc23)cc1 (stereo not shown) [CF-H10]    557
CC(C)N(Cc1ccccc1)C(=O)c1ccc(-c2c3cc(Cl)c(=O)cc-3oc3cc(O)c(Cl)cc23)cc1 [CF-C2]    559
Cc1cccc(CN(C)C(=O)c2ccc(-c3c4cc(Cl)c(=O)cc-4oc4cc(O)c(Cl)cc34)cc2)c1 [CF-D7]    555
CCCN(CCC)C(=O)c1ccc(-c2c3cc(Cl)c(=O)cc-3oc3cc(O)c(Cl)cc23)cc1 [CF-A11]    558
CC1CCC(NC(=O)c2ccc(-c3c4cc(Cl)c(=O)cc-4oc4cc(O)c(Cl)cc34)cc2)CC1 (stereo not shown) [CF-H5]    557
CCC(C)NC(=O)c1ccc(-c2c3cc(Cl)c(=O)cc-3oc3cc(O)c(Cl)cc23)cc1 (stereo not shown) [CF-G8]    556
CCOCCCNC(=O)c1ccc(-c2c3cc(Cl)c(=O)cc-3oc3cc(O)c(Cl)cc23)cc1 [CF-E4]    558
CCCCCCCNC(=O)c1ccc(-c2c3cc(Cl)c(=O)cc-3oc3cc(O)c(Cl)cc23)cc1 [CF-B11]    558
CN(CCc1ccccc1)C(=O)c1ccc(-c2c3cc(Cl)c(=O)cc-3oc3cc(O)c(Cl)cc23)cc1 [CF-D4]    555
CC1CCCCN1C(=O)c1ccc(-c2c3cc(Cl)c(=O)cc-3oc3cc(O)c(Cl)cc23)cc1 (stereo not shown) [CF-H6]    553
CCCCCCCCCCCCN(C)C(=O)c1ccc(-c2c3cc(Cl)c(=O)cc-3oc3cc(O)c(Cl)cc23)cc1 [CF-G2]    553
CN(C(=O)c1ccc(-c2c3cc(Cl)c(=O)cc-3oc3cc(O)c(Cl)cc23)cc1)C1CCCCC1 [CF-A10]    558
CCN(Cc1ccccc1)C(=O)c1ccc(-c2c3cc(Cl)c(=O)cc-3oc3cc(O)c(Cl)cc23)cc1 [CF-D5]    555
O=C(NCCc1ccccc1F)c1ccc(-c2c3cc(Cl)c(=O)cc-3oc3cc(O)c(Cl)cc23)cc1 [CF-H7]    557
